Kindly supply the reported Activity values for the records listed here.
Test system: Staphylococcus epidermidis
Test: Antibacterial activity against Staphylococcus epidermidis RP62A 6 hrs biofilm after 16 hrs by microtiter plate method
Format: functional

Ask: Give the value of Activity reported for the following: COc1cc(/C=C2\S/C(=N\c3ccccc3C)N(c3ccccc3C)C2=O)ccc1OCC(=O)O
Reply: >200 µM

Ask: Give the value of Activity reported for the following: CCc1ccccc1/N=C1\S/C(=C\c2ccc(OCC(=O)OC)cc2)C(=O)N1c1ccccc1CC
Reply: >200 µM

Ask: Give the value of Activity reported for the following: COc1cc(/C=C2\S/C(=N\c3ccccc3)N(c3ccccc3)C2=O)ccc1O
Reply: >200 µM

Ask: Give the value of Activity reported for the following: COc1ccc(/N=C2\S/C(=C\c3ccc(-c4cccc(C(=O)O)c4)o3)C(=O)N2c2ccc(OC)cc2)cc1
Reply: 6.25 µM

Ask: Give the value of Activity reported for the following: CCc1ccccc1/N=C1\S/C(=C\c2cccc(OCC(=O)OC)c2)C(=O)N1c1ccccc1CC
Reply: >200 µM

Ask: Give the value of Activity reported for the following: CCc1ccccc1/N=C1\S/C(=C\c2ccc(O)cc2)C(=O)N1c1ccccc1CC
Reply: >200 µM

Ask: Give the value of Activity reported for the following: CCc1ccccc1/N=C1\S/C(=C\c2cccc(O)c2)C(=O)N1c1ccccc1CC
Reply: >200 µM

Ask: Give the value of Activity reported for the following: CCc1ccccc1/N=C1\S/C(=C\c2cccc(OCC(=O)O)c2)C(=O)N1c1ccccc1CC
Reply: 100 µM

Ask: Give the value of Activity reported for the following: CCc1ccccc1/N=C1\S/C(=C\c2ccc(-c3cccc(C(=O)OC)c3)o2)C(=O)N1c1ccccc1CC
Reply: >200 µM
